target: human serum albumin (HSA) (Homo sapiens); conditions: Table S5, HSA, pH 7.4
Sequence (P02768 25-609): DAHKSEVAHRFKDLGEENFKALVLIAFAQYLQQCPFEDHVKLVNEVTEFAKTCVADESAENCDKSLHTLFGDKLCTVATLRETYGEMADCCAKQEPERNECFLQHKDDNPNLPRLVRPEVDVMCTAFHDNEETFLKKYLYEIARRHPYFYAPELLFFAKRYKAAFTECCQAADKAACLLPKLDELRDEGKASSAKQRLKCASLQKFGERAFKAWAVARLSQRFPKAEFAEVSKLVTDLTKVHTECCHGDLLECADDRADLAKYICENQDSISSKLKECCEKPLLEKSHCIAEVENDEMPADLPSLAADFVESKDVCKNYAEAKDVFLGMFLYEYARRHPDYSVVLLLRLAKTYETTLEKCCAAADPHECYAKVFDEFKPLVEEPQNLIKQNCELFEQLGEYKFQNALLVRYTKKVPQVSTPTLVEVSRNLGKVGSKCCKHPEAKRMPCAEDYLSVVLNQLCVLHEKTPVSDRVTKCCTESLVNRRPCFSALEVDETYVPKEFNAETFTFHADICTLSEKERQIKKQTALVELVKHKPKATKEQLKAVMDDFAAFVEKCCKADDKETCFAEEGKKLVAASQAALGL
Reported Metric: log k HSA
Please give only the number in your answer, with no unit.

| Compound | Reported Metric | Value Observed |
| --- | --- | --- |
| Cc1ccc(-c2cc(C(F)(F)F)nn2-c2ccc(S(N)(=O)=O)cc2)cc1 [celecoxib] | log k HSA | 1.13 |
| CC[C@H]1OC(=O)[C@H](C)[C@@H](O[C@H]2C[C@@](C)(OC)[C@@H](O)[C@H](C)O2)[C@H](C)[C@@H](O[C@@H]2O[C@H](C)C[C@H](N(C)C)[C@H]2O)[C@](C)(OC)C[C@@H](C)C(=O)[C@H](C)[C@@H](O)[C@]1(C)O [clarithromycin] | log k HSA | -0.09 |
| C=CCN1C[C@H](C(=O)N(CCCN(C)C)C(=O)NCC)C[C@@H]2c3cccc4[nH]cc(c34)C[C@H]21 [carbegoline] | log k HSA | 0.51 |
| CC1(C)S[C@@H]2[C@H](NC(=O)[C@H](N)c3ccc(O)cc3)C(=O)N2[C@H]1C(=O)O [amoxilcillin] | log k HSA | -0.03 |

Let's switch to this compound now.
Query: Recorded log k HSA of CC[C@H]1OC(=O)[C@H](C)[C@@H](O[C@H]2C[C@@](C)(OC)[C@@H](O)[C@H](C)O2)[C@H](C)[C@@H](O[C@@H]2O[C@H](C)C[C@H](N(C)C)[C@H]2O)[C@](C)(O)C[C@@H](C)/C(=N\OCOCCOC)[C@H](C)[C@@H](O)[C@]1(C)O [roxitromicin] , please.
Response: 0.01

* * *

Items are presented alongside their recorded CNP (Rf, control NP plate).
experiment: NP TLC on non-impregnated control plates; type: physicochemical; conditions: Table S3, non-impregnated NP plate; acetonitrile/acetate buffer pH 7.4/methanol 60:20:20
Please give only the number in your answer, with no unit.

Query: Recorded CNP (Rf, control NP plate) of CC(C)c1nc(N(C)S(C)(=O)=O)nc(-c2ccc(F)cc2)c1/C=C/[C@@H](O)C[C@@H](O)CC(=O)O [rosuvastatin] , please.
Response: 0.9

* * *

molecular target: human serum albumin (HSA) (Homo sapiens); test: in vitro; details: immobilized hsa column, pH 7.4
Reported Metric: chromatographic logD

Reference set (6 entries):
| Molecule | Value Observed |
| --- | --- |
| CN1CCN2c3ccccc3Cc3ccccc3C2C1 (stereo not drawn) | 0.81 |
| CCOCCn1c(C2CCN(CCc3ccc(C(C)(C)C(=O)O)cc3)CC2)nc2ccccc21 | -0.17 |
| CN1C[C@H](C(=O)N[C@]2(C)O[C@@]3(O)[C@@H]4CCCN4C(=O)[C@H](Cc4ccccc4)N3C2=O)C[C@@H]2c3cccc4[nH]cc(c34)C[C@H]21 [dihydroergotamine] | -0.64 |
| CCS(=O)(=O)CCn1c([N+](=O)[O-])cnc1C | -0.92 |
| OCCN1CCN(CCC=C2c3ccccc3Sc3ccc(C(F)(F)F)cc32)CC1 | 1.19 |
| O=c1n(CCCN2CCN(c3cccc(Cl)c3)CC2)nc2ccccn12 | 0.35 |

Query: Recorded chromatographic logD of O=C1CN=C(c2ccccn2)c2cc(Br)ccc2N1 , please.
Response: -0.2

Query: # repeat for CC(C)c1nc(N(C)S(C)(=O)=O)nc(-c2ccc(F)cc2)c1/C=C/[C@@H](O)C[C@@H](O)CC(=O)O
Response: 0.29

Query: # repeat for CN(C)C(=O)C(CCN1CCC(O)(c2ccc(Cl)cc2)CC1)(c1ccccc1)c1ccccc1 [loperamide]
Response: 0.65
